# key: entry, value: %Inh
- Test system: FRK;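 also: KINOMEscan kinase panel screen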
- condition-info: concentration: 1 μM, replicates: in singlicate; n = 1

compound	%Inh / %
O=C(Nc1n[nH]c2cc(-c3ccsc3)ccc12)C1CC1	0
O=C(Nc1n[nH]c2nc(-c3ccco3)c(Br)cc12)C1CCN(Cc2ccccc2)C1.O=C(O)[C@H](O)[C@@H](O)C(=O)O (stereo not shown)	0
COc1cccc(C2=C(Nc3cc(Cl)c(O)c(Cl)c3)C(=O)NC2=O)c1	20
Nc1nccc(-c2c(-c3ccc(F)cc3)ncn2C2CCN(Cc3ccccc3)CC2)n1	10

* * *

- Tested on: CDK8;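 also: kd values determined as follow-up on hits from a single-replicate KINOMEscan panel screen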
pKd: −log10 of the molar value.
property-label: pKd

chemical-smiles	value-observed
Cc1cnc(N)c(/C=C/c2cncc(C(=O)NCCc3ccc(Cl)cc3Cl)c2)c1.Cl	5.96
